Field: IC50. System: Cyclin-dependent kinase 1 (Homo sapiens, UniProt P06493). Provenance: assorted publications.

Lookup: IC50 / Cyclin-dependent kinase 1 (Homo sapiens, UniProt P06493) / CN(c1ccc(F)c(NC(=O)c2cccc(OC(C)(C)C#N)c2Cl)c1)c1ccc2nc(NC(=O)C3CC3)sc2n1
3700 nM

Requested read-out IC50, target or system Cyclin-dependent kinase 1 (Homo sapiens, UniProt P06493), entry Nc1nccc(-c2cc(N3CCCCC3)ccc2O)n1
> 10000 nM

Quick check: IC50 on Cyclin-dependent kinase 1 (Homo sapiens, UniProt P06493), item FC(F)(F)c1cnc(Nc2cccc(Cl)c2)nc1Nc1ccc2[nH]cnc2c1 ?
22 nM

# returns recorded IC50 (system: Cyclin-dependent kinase 1 (Homo sapiens, UniProt P06493)) for CN1CCN(C(=O)c2cc(Nc3ncc4cc(-c5cnn(C)c5)n(C5CCCC5)c4n3)cn2C)CC1
180 nM

Please state recorded IC50 (tested on Cyclin-dependent kinase 1 (Homo sapiens, UniProt P06493)) of COc1cc(C(=O)Nc2ccc(NC(=O)c3ccccc3)cc2)c(N)cc1O
> 30000 nM

Under Cyclin-dependent kinase 1 (Homo sapiens, UniProt P06493): IC50 value of CC(C)n1cnc2c(Nc3cccc(Cl)c3)nc(NC3c4ccccc4C[C@@H]3O)nc21 (some centres undefined) ?
300 nM

Query the reported IC50 for Cyclin-dependent kinase 1 (Homo sapiens, UniProt P06493); item: Cn1cc(Nc2ncc3cnn([C@@H]4C[C@H]5C[C@H]5C4)c3n2)cc1C(=O)N1CCC[C@@H]1CO
150 nM

Report IC50 for CC(C)[C@H](CO)N(Cc1ccc(F)cc1)c1nc(Nc2cccc(Cl)c2)c2ncn(C(C)C)c2n1 tested on Cyclin-dependent kinase 1 (Homo sapiens, UniProt P06493).
10000 nM

Item NNC(=O)c1c(N)ncnc1Nc1ccc(OCc2ccccc2)c(Cl)c1 with Cyclin-dependent kinase 1 (Homo sapiens, UniProt P06493) - IC50?
> 100000 nM

###

Assay read-out log10(IC50) on Cyclin-dependent kinase 1 (Homo sapiens, UniProt P06493); records merged from the literature.
Values below are the log10 of the recorded IC50, with µM as the unit.

Name the recorded log10(IC50) for Nc1ncnc2c1c(-c1ccccc1)cn2-c1cccc(CO)c1 .
1.67

Please report the recorded log10(IC50) for CNCCc1ccc(Nc2ncc(Cl)c(-c3ccc(C(C)(C)N)cc3)n2)cc1 .
0.03

I have this molecule here, CC(C)n1cnc2c(Nc3cccc(Cl)c3)nc(N[C@H](CO)c3ccccc3)nc21 , and I need its recorded log10(IC50).
-0.10

Look up log10(IC50): CN1CCC(COc2ccc3c(Nc4ccc(NC(=O)Nc5cccc(F)c5)cc4)ncnc3c2)CC1
1.00

GET /values?readout=log10(IC50)&item= CN1CCN(C(=O)c2cc(Nc3ncc4cc(-c5ccnn5C)n(C5CCCC5)c4n3)cn2C)CC1
0.23

Look up log10(IC50): Brc1cnc(Nc2ccc3nc[nH]c3c2)nc1NC1CCCc2ccccc21 (stereo not given)
-0.41

Fill in: log10(IC50) of O=C(Cc1ccc(F)cc1)Nc1n[nH]c2ccc(N3CCCS3(=O)=O)cc12 is ___
-1.30

###

Before we begin, note that these IC50 values for Cyclin-dependent kinase 1 (Homo sapiens, UniProt P06493) originate from several publications.
# output: bare number, implied unit nM

Param readout= IC50; system= Cyclin-dependent kinase 1 (Homo sapiens, UniProt P06493); entry= Cc1cc(N2CCCS2(=O)=O)c2oc(-c3ccc(O)c(O)c3)c(O)c(=O)c2c1 ; returns value.
130

For the record CC(C)n1cnc2c(Nc3cccc(Cl)c3)nc(N(CCO)Cc3ccccc3)nc21 , what value of IC50 is listed for Cyclin-dependent kinase 1 (Homo sapiens, UniProt P06493)?
5000

Query the reported IC50 for Cyclin-dependent kinase 1 (Homo sapiens, UniProt P06493); item: OCCCNc1cc(-c2cncc(Nc3cccc(Cl)c3)n2)ccn1
500

Request: IC50, test system Cyclin-dependent kinase 1 (Homo sapiens, UniProt P06493), entry CCN(CC)S(=O)(=O)c1cccc(Nc2nccc(-c3ccnc(-c4ccc(NC(=O)NC)cc4)c3)n2)c1
3200

Fill in the recorded IC50 for this compound, with Cyclin-dependent kinase 1 (Homo sapiens, UniProt P06493) as test system: COc1cccc(-c2cn(-c3cccc(CO)c3)c3ncnc(N)c23)c1
33000

Entry Cc1nc2c(F)cc(-c3cc(Nc4cnc(CN5CCN(CC6CC6)CC5)cn4)ncn3)cc2n1C(C)C , system Cyclin-dependent kinase 1 (Homo sapiens, UniProt P06493): what IC50 was measured?
103

Tell me reported IC50 for CC(C)(N)c1ccc(-c2nc(Nc3cccc(Br)c3)ncc2Cl)cc1 , tested with Cyclin-dependent kinase 1 (Homo sapiens, UniProt P06493).
1040

So what IC50 did CCCC(=O)Nc1n[nH]c2c(F)c(Cl)c(-c3ccccc3)cc12 get with Cyclin-dependent kinase 1 (Homo sapiens, UniProt P06493)?
2500
